# Tested on: hERG (Kv11.1, KCNH2) (Homo sapiens)
# Test protocol: in vitro
# Description: MMV: Malaria Box compounds were tested for inhibition of the human ether a go-go related gene (hERG), Kv11.1 channel, using IonWorks 384-well patch clamp electrophysiology at 1.1uM (3 independent assay plates up to 12 cells per concentration).
Assignment: determine reported inhibition at 1.1 µM for the given compounds.
Hi! Could you send only the number? It should be in %, unit omitted.

Req: Name the reported inhibition at 1.1 µM value associated with the compound CCn1nc(-c2ccc(C(=O)OC)cc2)nc2c(=O)n(C)c(=O)nc1-2
Resp: -2

Req: Also check CCOc1ccc(N2C(N)=NC(N)=NC2(C)C)cc1
Resp: 12

Req: Proceed to Cc1ccc(NC(=O)Nc2cccc(Cl)c2)cc1F
Resp: -7

Req: Input CN(C)c1ccc(N2C(N)=NC(N)=NC2(C)C)cc1
Resp: 10

Req: Okay, and Cn1c(=O)n(C)c2cc(CNCCNc3ccnc4cc(Cl)ccc34)ccc21 ?
Resp: 16

Req: Another compound to look at: CCOc1ccc2nc(C)cc(Nc3ccc(N(C)C)cc3)c2c1
Resp: 4

Req: And for O=C(Nc1ccc(CN2CCOCC2)cc1)c1ccc(-c2cc(Cl)ccc2Cl)o1 ?
Resp: 8

Req: Next up: CC(C)(C)C(=O)Nc1ccc(C(=O)Nc2cccc(-c3nc4ccccc4[nH]3)c2)cc1
Resp: 8

Req: Then what about the compound COc1ccc(CNC(=O)c2cc3c(=O)n4ccccc4nc3n(CCc3ccccc3)c2=N)cc1 ?
Resp: 10

Req: Same thing, different compound: COc1ccc2nc(C)cc(Nc3cccc(O)c3)c2c1
Resp: 32

Req: Same thing, different compound: Cc1cc(=O)oc2c1ccc1oc(C(=O)c3ccccc3)c(C)c12
Resp: -6

====

# Tested on: hERG (Kv11.1, KCNH2) (Homo sapiens, UniProt Q12809)
# Sequence (Q12809 whole entry): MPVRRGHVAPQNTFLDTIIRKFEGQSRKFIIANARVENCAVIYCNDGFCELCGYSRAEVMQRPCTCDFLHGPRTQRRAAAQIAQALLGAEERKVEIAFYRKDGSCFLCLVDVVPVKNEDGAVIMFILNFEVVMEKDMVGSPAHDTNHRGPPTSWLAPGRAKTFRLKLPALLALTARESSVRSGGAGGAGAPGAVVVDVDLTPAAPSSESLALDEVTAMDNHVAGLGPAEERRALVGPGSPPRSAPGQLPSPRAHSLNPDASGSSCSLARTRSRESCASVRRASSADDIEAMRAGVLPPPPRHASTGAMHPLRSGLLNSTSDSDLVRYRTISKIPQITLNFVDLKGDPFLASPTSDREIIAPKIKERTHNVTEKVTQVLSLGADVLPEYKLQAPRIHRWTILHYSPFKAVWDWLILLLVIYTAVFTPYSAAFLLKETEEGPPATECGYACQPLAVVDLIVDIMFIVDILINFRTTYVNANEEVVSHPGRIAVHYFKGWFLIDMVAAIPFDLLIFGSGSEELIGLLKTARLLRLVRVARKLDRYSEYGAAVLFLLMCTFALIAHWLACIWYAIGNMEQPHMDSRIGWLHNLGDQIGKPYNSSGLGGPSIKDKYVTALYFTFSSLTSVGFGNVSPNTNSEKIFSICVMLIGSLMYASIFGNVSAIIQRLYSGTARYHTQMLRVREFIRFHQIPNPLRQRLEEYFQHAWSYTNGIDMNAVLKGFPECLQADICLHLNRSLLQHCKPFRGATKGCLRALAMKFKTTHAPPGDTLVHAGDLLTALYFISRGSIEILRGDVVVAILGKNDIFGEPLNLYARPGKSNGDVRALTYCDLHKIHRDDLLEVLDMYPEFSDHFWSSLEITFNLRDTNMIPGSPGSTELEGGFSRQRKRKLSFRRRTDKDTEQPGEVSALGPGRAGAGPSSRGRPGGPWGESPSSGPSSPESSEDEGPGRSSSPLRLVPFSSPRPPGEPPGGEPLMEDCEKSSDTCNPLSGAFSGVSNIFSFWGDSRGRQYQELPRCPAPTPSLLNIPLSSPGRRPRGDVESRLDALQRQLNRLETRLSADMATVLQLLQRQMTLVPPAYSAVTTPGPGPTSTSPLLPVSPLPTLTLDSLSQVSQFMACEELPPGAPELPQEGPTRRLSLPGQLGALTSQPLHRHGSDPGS
# Test protocol: in vitro
Please go through the items and note down their inhibition at 1.1 µM.
Number only, in %; omit the unit.

Req: What measured inhibition at 1.1 µM goes with CCOc1ccc(/C=C/c2nc(=O)c3ccccc3o2)cc1 ?
Resp: 1

Req: Entry to check: CCOc1cccc(C(=O)Nc2ccc(-c3nc4ccccc4[nH]3)cc2)c1
Resp: 0

Req: Now give it for COc1ccc2c(c1OC)C(=O)N1c3ccccc3N=C(c3ccc(C)cc3)CC21 (stereo not given) too.
Resp: 25

Req: Input Oc1ccccc1CN1CCN(C(c2ccccc2)c2ccccc2)CC1
Resp: 13

Req: Now the same for Cc1ccccc1OCCSc1nc2ccc(NC(=O)c3cccs3)cc2s1
Resp: 12

Req: Similarly, COc1ccc(Nc2nc(NCc3ccccc3)c3ccccc3n2)cc1 ?
Resp: 0

Req: Now consider c1ccc2c(NCCCCCCNc3c4c(nc5ccccc35)CCCC4)c3c(nc2c1)CCCC3 and answer again.
Resp: 36

Req: Entry to check: OC1=C2C(=Nc3ccccc3SC2c2ccc(Br)cc2)c2ccccc21 (stereo not given)
Resp: 3

Req: What about this molecule? COc1ccc(C2=C(c3ccc(OC)cc3)C3(c4ccccc4)C(=O)C2(c2ccccc2)C2C(=O)N(c4ccc(C)cc4)C(=O)C23)cc1 (stereo not given)
Resp: -8

Req: Next: c1ccc(CNc2nc(Nc3ccccc3)nc3ccccc23)cc1
Resp: 17

====

# Tested on: hERG (Kv11.1, KCNH2) (Homo sapiens)
# Test protocol: in vitro
Value type: inhibition at 1.1 µM (%)
Write the number in % without appending the unit.

Req: Sample COc1ccc(C=C2SC(=N)N(c3ccccc3OC)C2=O)cc1 — what was its inhibition at 1.1 µM?
Resp: 7

Req: How about COc1ccc(NC(=O)C2c3ccccc3C(=O)N(CC(C)C)C2c2cccs2)cc1 (stereo unspecified) ?
Resp: 7

Req: Lookup CN(C)CCCNc1c2ccccc2nc2ccccc12
Resp: 5

Req: Same read-out for CCCCCCc1cc(O)c2c3c(c(=O)oc2c1)CCC(C)C3 (stereo unspecified) ?
Resp: -5

Req: Moving on to CCOc1ccc(Nc2ccnc3cc(Cl)ccc23)cc1
Resp: 5

Req: Item: COc1ccc(-c2cc3c(SCC(=O)Nc4cc(C(F)(F)F)ccc4Cl)nccn3n2)cc1
Resp: 6

Req: Again, but for O=C(Nc1ccccc1O)c1ccc(Oc2cccc(C(=O)Nc3ccccc3O)c2)cc1
Resp: -2

Req: And the next one, CCC1(C)CC(CCNCc2ccccc2O)(c2ccc(C)cc2)CCO1 (stereo unspecified) ?
Resp: 2

Req: # repeat for COC(=O)c1ccc(Cl)c2c1C1C=CCC1C(c1cccc3ccccc13)N2 (stereo unspecified)
Resp: 10

Req: Now consider CCCCNc1nc(NC(C)(C)C)nc(NC(C)(C)C)n1 and answer again.
Resp: -1

Req: And then O=C1CC(O)(C(F)(F)C(F)(F)F)Oc2ccccc21 (stereo unspecified) , what is it?
Resp: -9

====

# Tested on: hERG (Kv11.1, KCNH2) (Homo sapiens)
# Test protocol: in vitro
# Description: MMV: Malaria Box compounds were tested for inhibition of the human ether a go-go related gene (hERG), Kv11.1 channel, using IonWorks 384-well patch clamp electrophysiology at 11.1uM (3 independent assay plates up to 12 cells per concentration).
Value type: inhibition at 11.1 µM (%)
Record the value in %, omitting the unit from your answer.

Req: Test system hERG (Kv11.1, KCNH2) (Homo sapiens); read-out inhibition at 11.1 µM; what value for Cc1ccc(Cn2c(N3CCC(C(=O)NCc4cccs4)CC3)nc3ccccc32)cc1 ?
Resp: 103

Req: Also CCN1CCCC1CNc1[nH]cnc2c3cc(Cl)ccc3nc1-2 (stereo not given) , if possible.
Resp: 29

Req: What do you have for COc1ccc(-c2nc(NC(=O)CS(=O)(=O)c3ccc(F)cc3)sc2C)cc1 ?
Resp: 69

Req: Repeat for the following compound: O=C(CCc1ccco1)NC1CCN(CC2(c3ccc(Cl)cc3)CCC2)CC1
Resp: 65

Req: Same question for Cn1c(=O)c2cc(C(=O)NCCCN3CCCCCC3)sc2c2ccccc21 please.
Resp: 6

Req: Record: Cc1[nH]c(-c2ccc(F)cc2)cc1C(=O)NC1CCN(Cc2ccccc2)CC1
Resp: 96

Req: Param item: Cc1cc(N(C)C)nc(Nc2ccc(NC(=O)Nc3ccccc3)cc2)n1
Resp: -1

Req: Try this compound too: CCOC(=O)c1cn(CC)c2cc(N(C)CCc3ccc(OC)c(OC)c3)c(F)cc2c1=O
Resp: 34

Req: Next compound: CCCCCCn1c(=N)n(CC(O)COc2cccc(C)c2)c2ccccc21 (stereo not given)
Resp: 111

Req: Subsequent entry: CCOc1cc2c(cc1OCC)C(c1cc(C)c(O)c(C)c1)NCC2 (stereo not given)
Resp: 36

====

# Tested on: UniProtKB Q12809
# Test protocol: in vitro
Consider the following molecules; for each one, report its inhibition at 1.1 µM.
Write it as a number; the unit % goes unstated.

Req: // query inhibition at 1.1 µM value for entry Cc1cc(C)c2c(c1)OCN(Cc1ccccc1Cl)C2
Resp: 30

Req: Moving on to the next molecule: COc1ccccc1N1CCN(C(CNS(=O)(=O)c2ccc(Cl)cc2)c2cccnc2)CC1 (stereo not drawn)
Resp: 4

Req: Input COc1ccccc1C(=O)ON=C(N)Cc1cccc2ccccc12
Resp: 2

Req: And the next one, CCOC(=O)C1=C(C)N=c2sc(=Cc3ccccc3O)c(=O)n2C1c1ccc(OC)c2ccccc12 (stereo not drawn) ?
Resp: 13

Req: Proceed to CC1(c2ccccc2)Nc2ccccc2-c2nc3ccccc3n21 (stereo not drawn)
Resp: -10

Req: # repeat for CCOC(=O)c1ccc2[nH]c(-c3ccccc3)cc(=O)c2c1
Resp: -1

Req: Then CCOC(=O)C1=C(c2ccccc2)N=c2sc(=Cc3cc(C)n(-c4ccc(F)cc4)c3C)c(=O)n2C1c1cccc(OC)c1OC (stereo not drawn) ?
Resp: 3

Req: Thanks! And COc1ccc(C(=O)Nc2ccc(Cl)cc2C(=O)Nc2ccncc2)cc1 ?
Resp: -6

Req: What would you report for Cc1[nH]c(-c2ccc(F)cc2)cc1C(=O)NC1CCN(Cc2ccccc2)CC1 ?
Resp: 55

Req: Param item: COCCNC(=O)c1ccc(OC2CCN(Cc3ccc(F)c(F)c3)CC2)c(Cl)c1
Resp: 7

Req: Queued: COc1ccc(-c2nonc2NC(=O)c2cccc(Cl)c2)cc1OC
Resp: 4

Req: Try this molecule next: CC(C)OCc1cc(CN2CCN(c3cccc(Cl)c3)CC2)c(O)c2ncccc12
Resp: 65

Req: Try COc1ccc2sc(N(Cc3cccnc3)C(=O)c3ccc(C#N)cc3)nc2c1 next.
Resp: 14

Req: Could you do the same for COc1cccc(Nc2nc(NCCO)c3ccccc3n2)c1 , please?
Resp: 18

Req: Here is the next molecule: CC(C)(C)c1ccc(C2CC3=Nc4ccccc4N(C(=O)c4ccccc4Cl)C(c4ccc(F)cc4)C3=C(O)C2)cc1 (stereo not drawn)
Resp: 30

Req: Ok, now CN1CCN(c2c3c(c(C#N)c4nc5ccccc5n24)CCC3)CC1
Resp: 7

Req: Same question, COc1ccc(Nc2nc(N/N=C/c3ccc(O)cc3)nc(Nc3ccc([N+](=O)[O-])cc3)n2)cc1 this time
Resp: 17

Req: Let us now turn to CCCc1c(CC)c(=N)c2ccccc2n1C
Resp: 0

Req: # repeat for O=C(NCc1ccco1)C1CCN(S(=O)(=O)c2ccc(Cl)cc2)CC1
Resp: 11

Req: Same lookup for COc1ccc(N2CCN(C(CNC(=O)CC(C)(C)C)c3ccc4c(c3)OCO4)CC2)cc1 (stereo not drawn) , please.
Resp: -5

Req: Same question for CCC(=O)Nc1nnc(Cc2ccc(OC)c(OC)c2)s1 please.
Resp: -1

Req: Here is the next molecule: O=C(NCCCN1CCC(N2CCCCC2)CC1)C1=Cc2cc(Br)ccc2OC1
Resp: 5

Req: And for COc1ccc(C(=O)Nc2nonc2-c2ccc(OC)c(OC)c2)cc1Cl ?
Resp: 7

Req: Note, next up: O=C(NC(c1ccccc1)c1ccc2cccnc2c1O)c1ccccc1 (stereo not drawn)
Resp: 1

Req: Also COc1ccc(-c2cn3c(C(=O)Nc4ccccc4Cl)c(-c4ccccc4)c4c3n2CCCC4)cc1 ?
Resp: 17

Req: Can you check O=C(NC1CCN(Cc2ccccc2)CC1)c1cc(-c2cccnc2)nc2ccc(Cl)cc12 next?
Resp: 18

Req: Next record, please: COc1ccc(C(=O)C(CCC(CNC(C)(C)C)C(=O)c2ccc(OC)cc2)CNC(C)(C)C)cc1 (stereo not drawn)
Resp: 9

Req: Let us now turn to COc1ccc2nc(C)cc(Nc3ccc(Cl)cc3)c2c1
Resp: 67

Req: // same read-out, input: CCN(Cc1ccccc1)C1CCN(Cc2cc(Br)ccc2O)CC1
Resp: 18

Req: Request: COc1ccc(C(=O)NC(c2ccc(Cl)cc2Cl)c2cc(Cl)c3cccnc3c2O)cc1 (stereo not drawn)
Resp: -3

Req: # iterate: CCOC(=O)c1cnc2ccc(OC)cc2c1NCc1ccccc1
Resp: -2

Req: Proceed to O=C(Nc1ccc(Br)cc1)Nc1cccc(Cl)c1
Resp: -5

Req: Entry COc1nc(Nc2ccc(C(C)C)cc2)nc(OC)n1 please
Resp: -2

Req: Entry to check: c1ccc(-c2ccc(-c3nc4ccccc4[nH]3)cc2)cc1
Resp: -2

Req: Item: COc1cccc(NC(=O)Cn2c(C)c(C#N)c3ccccc32)c1
Resp: 2

Req: Then what about the molecule OCCNc1nc(Nc2ccc(Cl)c(Cl)c2)nc2ccccc12 ?
Resp: 4

Req: Cc1cc(NC(=O)c2cccc(C(F)(F)F)c2)n(-c2nc(-c3ccc4c(c3)OCO4)cs2)n1 ?
Resp: 12

Req: Can you check COc1cccc(C(=O)Nc2ccc(-c3nc4ccccc4[nH]3)cc2)c1 next?
Resp: 4

Req: Try the molecule Cc1cc(Nc2ccc(C)c(Cl)c2)n2nc(C(F)(F)F)nc2n1
Resp: 23

Req: Entry to check: Cc1ccc(N2C3c4ccccc4N(S(=O)(=O)c4ccc(C)cc4)C2c2ccccc2N3S(=O)(=O)c2ccc(C)cc2)cc1
Resp: 18

Req: For CN(C)CCNc1cc(-c2ccccc2)nc2ccccc12 then?
Resp: 20

Req: Another molecule: CC(=O)Nc1nnc(SCc2c(C)cc(C(C)(C)C)cc2C)s1
Resp: 0

Req: Record: CCOC(=O)c1c(NC(=O)c2ccccc2)sc2c(O)c(CN(CC)CC)ccc12
Resp: 4
